# system-name: Fuc(a1-2)Gal(b1-4)[Fuc(a1-3)]GlcNAc(b1-2)Man(a1-3)[Fuc(a1-2)Gal(b1-4)[Fuc(a1-3)]GlcNAc(b1-2)Man(a1-6)]Man(b1-4)GlcNAc(b1-4)[Fuc(a1-6)]GlcNAc
# assay-explanation: glycan array binding signal (z-score within array); higher = stronger binding
# setup-conditions: glycan notation: IUPAC condensed, linker removed
The sample as a whole holds a higher share of the strongest signals than the screen did.
assay-metric: glycan array binding signal (z-score)

I would be grateful if you could share the reported glycan array binding signal (z-score) for AT3G44510(29) (Arabidopsis thaliana), F4J341 (protein) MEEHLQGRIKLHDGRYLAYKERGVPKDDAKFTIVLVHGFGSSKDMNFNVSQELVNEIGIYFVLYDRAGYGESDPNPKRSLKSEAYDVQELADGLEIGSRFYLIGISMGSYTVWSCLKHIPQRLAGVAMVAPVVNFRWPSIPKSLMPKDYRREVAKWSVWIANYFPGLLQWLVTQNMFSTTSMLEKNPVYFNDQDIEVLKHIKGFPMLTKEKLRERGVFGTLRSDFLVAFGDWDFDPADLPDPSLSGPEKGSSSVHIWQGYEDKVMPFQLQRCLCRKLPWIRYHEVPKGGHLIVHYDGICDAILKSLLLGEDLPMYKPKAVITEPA .
-0.458
